These compounds were tested on Alpha-2B adrenergic receptor (Homo sapiens, UniProt P18089); AC50 is the recorded read-out. Further: assay procedure not described here.
Sequence (P18089 whole entry): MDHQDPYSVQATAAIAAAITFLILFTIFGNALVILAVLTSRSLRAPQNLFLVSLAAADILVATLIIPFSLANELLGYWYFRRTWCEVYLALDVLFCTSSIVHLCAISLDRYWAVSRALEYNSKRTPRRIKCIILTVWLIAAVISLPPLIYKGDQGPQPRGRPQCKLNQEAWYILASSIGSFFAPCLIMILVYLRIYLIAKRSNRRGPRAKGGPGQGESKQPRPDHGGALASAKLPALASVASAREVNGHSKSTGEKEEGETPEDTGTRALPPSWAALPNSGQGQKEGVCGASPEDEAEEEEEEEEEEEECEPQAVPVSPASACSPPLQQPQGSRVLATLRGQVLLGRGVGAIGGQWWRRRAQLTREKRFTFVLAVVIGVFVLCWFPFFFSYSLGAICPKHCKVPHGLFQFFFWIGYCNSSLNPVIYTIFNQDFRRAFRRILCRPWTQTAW

Query: Using the record for COC(=O)N[C@@H](C)CNc1nccc(-c2cn(C(C)C)nc2-c2cc(Cl)cc(NS(C)(=O)=O)c2F)n1 [ENCORAFENIB] , state its measured AC50.
Result: > 30 µM

Query: Using the record for Nc1nc(F)nc2c1ncn2[C@@H]1O[C@H](COP(=O)(O)O)[C@@H](O)[C@@H]1O [FLUDARABINE PHOSPHATE] , state its measured AC50.
Result: > 30 µM

Query: Using the record for COc1cc2c(Nc3ccc(Br)cc3F)ncnc2cc1OCC1CCN(C)CC1 [VANDETANIB] , state its measured AC50.
Result: 0.682 µM

Query: Using the record for CC(NCCc1ccc(O)cc1)C(O)c1ccc(O)cc1 (stereo not drawn) [RITODRINE] , state its measured AC50.
Result: > 30 µM

Query: Using the record for CCOC(=O)Nc1ccc2c(c1)N(C(=O)CCN1CCOCC1)c1ccccc1S2 [MORICIZINE] , state its measured AC50.
Result: > 30 µM

Query: Using the record for CCN(CC)C(=O)C1(c2ccccc2)CC1CN (stereo not drawn) , state its measured AC50.
Result: > 30 µM

Query: Using the record for CN1c2ccccc2C(NCCCCCCC(=O)O)c2ccc(Cl)cc2S1(=O)=O (stereo not drawn) [TIANEPTINE] , state its measured AC50.
Result: > 30 µM

Query: Using the record for C[C@]12CC[C@H](O)CC1=CC[C@@H]1[C@@H]2CC[C@]2(C)C(c3cccnc3)=CC[C@@H]12 [ABIRATERONE] , state its measured AC50.
Result: > 10 µM
